System: DU-145 prostate
test_description: NCI-60 one-dose screen, 48 h (100 = growth as untreated, 0 = no growth, -100 = all killed)
experimental_setup: 10 µM
The panel holds about 83,000 compounds, 20% with a hit somewhere; the sample as a whole holds those more often.
Please go through the items and note down their growth.
Answers are plain numbers, in %.

The cases that follow already have their growth on record.
test_smiles	u	growth
N#C/C(=C\c1cc(O)c(O)c(O)c1)C(N)=O	%	93.6
Cc1cc2nc(CO)[nH]c2cc1C	%	104
O=C(O)c1ccc(S(=O)(=O)O)cc1	%	133

Look up growth for the entries below, preserving their order.
1. C=C[Si](OC(C)=O)(OC(C)=O)OC(C)=O
2. O=C(O)CCCCNC(=O)c1ccccc1
3. NCCCN

Result:
1. 116
2. 110
3. 107

Look up growth for the entries below, preserving their order.
1. CC(C)C(C#N)(C(C)C)C(C)C
2. CC(=O)N(C)c1ccc([N+](=O)[O-])cc1

Result:
111
122

###

System: CAKI-1 renal
test_description: NCI-60 one-dose screen, 48 h
experimental_setup: 10 µM
Compounds without any hit were thinned out: in the full panel of roughly 83,000, 20% have a hit. Activity calls are given as the source filed them. Rule for the calls: active = growth percent below 10; inactive = the rest.
Field 'call' accepts 1.0 = active, 0.0 = inactive

Consider the worked cases shown below.
compound	measured_on	classification
c1c(-c2cc(C3CC3)[nH]n2)n[nH]c1C1CC1	CAKI-1 renal	0.0
CC1C(=O)c2ccccc2CC1C(=O)O (stereo not given)	CAKI-1 renal	0.0
c1ccc2c(c1)Sc1ccccc1S2	CAKI-1 renal	0.0
CCCCNC1(C#N)CCN(Cc2ccccc2)CC1	CAKI-1 renal	0.0

Request: Called result for CCCCOC(=O)c1ccc(C(C)C)cc1
Result: 0.0

Request: Similarly, c1ccc2c(N3CCCCC3)ncnc2c1 ?
Result: 0.0

Request: Similarly, COc1cc(OC)c2ccc(=O)oc2c1 ?
Result: 0.0

Request: Similarly, N#CCc1ccc([N+](=O)[O-])cc1 ?
Result: 0.0

Request: Similarly, O=C1Cc2ccccc2C(=O)O1 ?
Result: 0.0

Request: Similarly, O=C1c2ccccc2C(=O)c2c1ccc(C(=O)O)c2[N+](=O)[O-] ?
Result: 0.0

Request: Similarly, O=C(O)[C@@H]1[C@H]2C[C@H]3c4[nH]c5ccccc5c4CCN3C[C@@H]2CC[C@@H]1O ?
Result: 0.0

Request: Similarly, COC(=O)c1ccccc1Br ?
Result: 0.0

Request: Similarly, O=[N+]([O-])c1cccc(C(F)(F)F)c1 ?
Result: 0.0

Request: Similarly, CC(CN1CCCCC1)NC(=O)c1scnc1-c1ccccc1 (stereo not given) ?
Result: 0.0

Request: Similarly, COc1cc2c3c(n(C)c(=O)c2cc1OC)-c1cc2c(cc1C3=O)OCO2 ?
Result: 0.0

###

Please go through the items and note down their growth.
Test system: K-562 leukemia
test_description: NCI-60 one-dose screen, 48 h (100 = growth as untreated, 0 = no growth, -100 = all killed)
experimental_setup: 10 µM
This is part of a sample that, as a whole, favours compounds with a hit. Of some 83,000 tested, about 20% had one in any assay.
Numbers only, in %.

The cases that follow already have their growth on record.
compound	growth (%)
COC(=O)/C=C\C(=O)OC	107
CCCCC(O)c1ccccc1 (centres undefined)	94
Sc1ccc(Nc2c3ccccc3nc3ccccc23)cc1	32

Look up growth for the entries below, preserving their order.
1. c1cc[n+](C2c3ccccc3C([n+]3ccccc3)c3ccccc32)cc1 (centres undefined)
2. CC(=O)OC(OC(C)=O)C1CCCO1 (centres undefined)
3. O=C(N/N=C\c1cc(Br)cc(Br)c1O)N/N=C/c1cc(Br)cc(Br)c1O
4. COc1ncnc2c1cnn2C
5. COCCCNC(=O)c1nnn2c1nc(N)c1cc(Cl)ccc12

Result:
[72.9, 135, 22.9, 115, 34.6]

Look up growth for the entries below, preserving their order.
1. CCCCCCCO
2. CCCNC(=O)c1ccc(S(N)(=O)=O)cc1
3. CCN(CC)C(=O)/C=C(/C)c1ccccc1
4. S=C(Nc1ccccc1)N1CCCCC1
5. CCOc1ccccc1/C=N/Nc1nc2ccccc2o1

Result:
1. 106
2. 107
3. 107
4. 110
5. 95.7

Request: Need growth of NC(=S)N/N=C/c1ccc(N)cc1 , thanks.
Result: 98.7
